Values compiled from PubChem BioAssay AID1159580.

- experiment_notes: chemical genetic growth profiling, strain panel (AID 1159580);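 note: tested at 20 µM; growth read once vehicle control cultures reached saturation at 30 °C; 1 = growth at the plate median or of vehicle wells; lower values mean less growth of the strain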
- condition_set: S. cerevisiae deletion strains, growth OD, locus YGL227W, strain vid30
Screen size: about 5,500 compounds; about 2,000 (36%) were called active. Another 18% or so got no clear call; they are omitted. Cut-off read from the data, not from the text of the source: active = normalized growth mostly below about 0.91 (no sharp cut-off); inconclusive = no clear call, values can overlap the other calls; inactive = mostly above about 0.92. Some of the results follow.
Lab note: assign the record to one of 1.0 = active, 0.0 = inactive

Example cases with answers are listed next.
| molecule | class |
| --- | --- |
| CC1=C2CCC3C(CC[C@]4(C)C(=O)CCC34)[C@@]2(C)CCC1=O (stereo partly specified) | 0.0 |
| CC(C)(O)CC[C@@H](O)[C@](C)(O)C1CC[C@@]2(O)C3=CC(=O)C4C[C@@H](O)[C@@H](O)C[C@]4(C)C3CC[C@]12C (stereo partly specified) | 0.0 |
| O=C(O)c1cc2cc(Cl)ccc2[nH]1 | 0.0 |
| CCCCC/C=C\C/C=C\C/C=C\C/C=C\CCCC(=O)O | 0.0 |
| CN1CCN(CCCN2c3ccccc3Sc3ccc(Cl)cc32)CC1 | 0.0 |
| N#Cc1ccc2c(c1)N(CCCN1CCC(O)CC1)c1ccccc1S2 | 0.0 |
| CC(=O)c1ccc2c(c1)N(CCCN(C)C)c1ccccc1S2 | 0.0 |
| Cc1c(N(C)CS(=O)(=O)O)c(=O)n(-c2ccccc2)n1C | 0.0 |
| OCCN1CCN(CCCN2c3ccccc3Sc3ccc(Cl)cc32)CC1 | 0.0 |
| COc1cc2ccc(=O)oc2cc1O | 0.0 |

Turning now to a further record.
Which outcome was entered for the molecule "CC(C)=CCC1=C(O)c2ccccc2C(=O)C1=O" in this test? 1.0
